target.or.system: nsp14-nsp10 protein complex (Severe acute respiratory syndrome coronavirus 2)
protocol.notes: nsp14 ExoN activity assay with nsp14-nsp10 complex (gel-based, 32P-labelled H4 RNA)
pIC50: −log10 of the molar value.

{"molecule": "N[C@@H]1c2cccnc2[C@H](OC(=O)N2CCC(n3c(=O)[nH]c4ncccc43)CC2)CC[C@H]1c1cccc(F)c1F [rimegepant, Rimegepant]", "pIC50": 2.77}

Origin of values: patent EP4151214A1
